Parameter: VLDL. Scope: all listed entries.
- experimental.details: Plasma cholesterol and triglyceride levels in huCETP transgenic mice (Example 5)
- Type: in vivo
- conditions.used: plasma, 50 mg/kg i.p. twice per week, week 6
e = 2'-O-(2-methoxyethyl) (MOE); d = 2'-deoxy (DNA)
Respond with the bare value in mg/dL.

Reported VLDL for ISIS 349511: 5-10-5 MOE gapmer CCCGACCTCCTTGGAGACTT (sugars from the 5' end e5 d10 e5, backbone and methylation of C not given here) : what is it? 4

Reported VLDL for ISIS 349512: 5-10-5 MOE gapmer TTGCCTTCTGCTACAAGCCC (sugars from the 5' end e5 d10 e5, backbone and methylation of C not given here) : what is it? 3

Reported VLDL for ISIS 349515: 5-10-5 MOE gapmer AACTTCCACCACGCTGGAGG (sugars from the 5' end e5 d10 e5, backbone and methylation of C not given here) : what is it? 4

Reported VLDL for ISIS 349517: 5-10-5 MOE gapmer CAGCACTTTAATGCCAGTGG (sugars from the 5' end e5 d10 e5, backbone and methylation of C not given here) : what is it? 4
